Assay: Change of blood pressure, intravenous administration, anesthetized dog
Format: in vivo
Design: unit not given here
Conditions: femoral artery, 300 micrograms/kg
Exercise: for every item that follows, state its recorded Change of blood pressure.
The response must contain the number and no unit.

Ask: // returns reported Change of blood pressure for input COC(=O)C1=C(C)NC(C)=C(C(=O)OCCCCOc2cccc3[nH]c(=O)ccc23)C1c1cccc([N+](=O)[O-])c1 (stereo not drawn) [Compound 18]
Result: -43

Ask: Same thing, different compound: COC(=O)C1=C(C)NC(C)=C(C(=O)OCCCOc2cccc3[nH]c(=O)ccc23)C1c1cccc([N+](=O)[O-])c1 (stereo not drawn) [Compound 22]
Result: -36

Ask: Next up: COC(=O)C1=C(C)NC(C)=C(C(=O)OCCCOc2cc(=O)[nH]c3ccccc23)C1c1cccc([N+](=O)[O-])c1 (stereo not drawn) [Compound 37]
Result: -18
